Listed compounds paired with reported EC50
- target entity: proteasome in Molt-4 cells (human leukemia) (Homo sapiens, UniProt P20618+P28074)
- Sequence (P28074 60-263): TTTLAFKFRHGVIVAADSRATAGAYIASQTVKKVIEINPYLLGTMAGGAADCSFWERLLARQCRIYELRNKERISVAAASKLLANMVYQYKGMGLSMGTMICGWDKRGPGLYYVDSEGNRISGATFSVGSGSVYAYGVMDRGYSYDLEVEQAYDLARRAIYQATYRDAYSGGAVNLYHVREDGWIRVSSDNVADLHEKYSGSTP
- Sequence (P20618 29-241): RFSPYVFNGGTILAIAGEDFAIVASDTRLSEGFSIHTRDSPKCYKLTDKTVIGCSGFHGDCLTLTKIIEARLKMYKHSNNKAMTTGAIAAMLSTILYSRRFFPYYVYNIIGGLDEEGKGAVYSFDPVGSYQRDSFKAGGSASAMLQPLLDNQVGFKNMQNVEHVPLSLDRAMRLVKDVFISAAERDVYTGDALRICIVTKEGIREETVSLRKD
- Type: cell-based
- measurement context: assay of Example E, inhibition of MOLT4; read-out: MOLT4 (EC50)

Example results:
CC(C)C[C@H](NC(=O)[C@H](CCCNC(=N)N[N+](=O)[O-])NC(=O)C(C)c1ccccc1)B(O)O (mixture of isomers) ... > 10 µM
CC(C)C[C@H](NC(=O)[C@H](CCCNC(=N)N[N+](=O)[O-])NC(=O)c1cccs1)B(O)O ... > 10 µM
CCCCCCCCCCC(=O)N[C@@H](CCCNC(=N)N[N+](=O)[O-])C(=O)N[C@@H](CC(C)C)B(O)O ... < 0.2 µM

Param readout = EC50; param system = proteasome in Molt-4 cells (human leukemia) (Homo sapiens, UniProt P20618+P28074); param query = CC(C)C[C@H](NC(=O)[C@H](CCCNC(=N)N[N+](=O)[O-])NC(=O)CCc1cccs1)B1O[C@@H]2C[C@@H]3C[C@@H](C3(C)C)[C@]2(C)O1 ; response: value
< 0.2 µM

* * *

Listed compounds paired with reported IC50
- target entity: 20S Human Erythrocyte Proteasome (HEP) (Homo sapiens, UniProt P20618+P28074)
- Construct: 20S Human Erythrocyte Proteasome (HEP), purchased from Immatics Biotechnologies Inc
- protocol details: Chymotrypsin-like activity of 20S Human Erythrocyte Proteasome (HEP), IC50 determination
- measurement context: assay of Example C, inhibition of HEP

Can you share its IC50? I mean this compound: CCCCc1ccc(C(=O)N[C@@H](CNC(=O)NS(=O)(=O)c2ccc(C)cc2)C(=O)N[C@@H](CC(C)C)B(O)O)cc1
< 100 nM

Check CCCCCCCCCC(=O)N[C@@H](CNC(=O)c1cccs1)C(=O)N[C@@H](CC(C)C)B1O[C@@H]2C[C@@H]3C[C@@H](C3(C)C)[C@]2(C)O1 too.
< 10 nM

Check CSCC(=O)N[C@@H](CCCNC(=N)N[N+](=O)[O-])C(=O)N[C@@H](CC(C)C)B(O)O too.
< 10 nM

Check CC(C)C[C@H](NC(=O)[C@H](CCCNC(=N)N[N+](=O)[O-])NC(=O)CCCC(=O)c1ccccc1)B1O[C@@H]2C[C@@H]3C[C@@H](C3(C)C)[C@]2(C)O1 too.
< 10 nM

Check Cc1ccc(/C=C/C(=O)N[C@@H](CCCNC(=N)N[N+](=O)[O-])C(=O)N[C@@H](CC(C)C)B2O[C@@H]3C[C@@H]4C[C@@H](C4(C)C)[C@]3(C)O2)cc1 too.
< 10 nM

Check CCS(=O)(=O)NCCCCCC(=O)N[C@@H](CCCNC(=N)N[N+](=O)[O-])C(=O)N[C@@H](CC(C)C)B1O[C@@H]2C[C@@H]3C[C@@H](C3(C)C)[C@]2(C)O1 too.
< 100 nM

Check CCOc1ccc(C(=O)N[C@@H](CCCNC(=N)N[N+](=O)[O-])C(=O)N[C@@H](CC(C)C)B2O[C@@H]3C[C@@H]4C[C@@H](C4(C)C)[C@]3(C)O2)cc1 too.
< 10 nM

* * *

Listed compounds paired with reported pEC50
- target entity: proteasome in Molt-4 cells (human leukemia) (Homo sapiens, UniProt P20618+P28074)
- Sequence (P28074 60-263): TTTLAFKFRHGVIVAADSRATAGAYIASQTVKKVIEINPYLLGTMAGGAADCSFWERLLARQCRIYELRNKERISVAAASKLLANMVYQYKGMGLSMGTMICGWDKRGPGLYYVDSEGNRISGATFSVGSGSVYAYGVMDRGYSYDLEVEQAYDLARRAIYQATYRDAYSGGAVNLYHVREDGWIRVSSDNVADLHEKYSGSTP
- Sequence (P20618 29-241): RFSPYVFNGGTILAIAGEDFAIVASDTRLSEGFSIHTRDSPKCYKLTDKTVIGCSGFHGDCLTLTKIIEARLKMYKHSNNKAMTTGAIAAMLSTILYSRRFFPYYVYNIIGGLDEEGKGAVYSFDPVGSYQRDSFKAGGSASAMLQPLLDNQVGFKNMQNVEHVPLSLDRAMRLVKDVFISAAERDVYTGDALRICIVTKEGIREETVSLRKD
- Assay type: cell-based
- measurement context: assay of Example E, inhibition of MOLT4; read-out: MOLT4 (EC50)
pEC50: −log10 of the molar value.

Cc1cccc(/C=C/C(=O)N[C@@H](CCCNC(=N)N[N+](=O)[O-])C(=O)N[C@@H](CC(C)C)B(O)O)c1 ... 5.00 to 5.70
CC(=O)NCCCCCC(=O)N[C@@H](CCCNC(=N)N[N+](=O)[O-])C(=O)N[C@@H](CC(C)C)B(O)O ... < 5.00
CSCCC(=O)N[C@@H](CCCNC(=N)N[N+](=O)[O-])C(=O)N[C@@H](CC(C)C)B(O)O ... < 5.00

Continue with the next compound.
Can you share its pEC50? I mean this compound: CC(C)C[C@H](NC(=O)[C@H](CCCNC(=N)N[N+](=O)[O-])NC(=O)CCCCCCC(=O)c1ccccc1)B1O[C@@H]2C[C@@H]3C[C@@H](C3(C)C)[C@]2(C)O1
> 6.70

* * *

Listed compounds paired with reported EC50
- target entity: proteasome in Molt-4 cells (human leukemia) (Homo sapiens, UniProt P20618+P28074)
- Sequence (P28074 60-263): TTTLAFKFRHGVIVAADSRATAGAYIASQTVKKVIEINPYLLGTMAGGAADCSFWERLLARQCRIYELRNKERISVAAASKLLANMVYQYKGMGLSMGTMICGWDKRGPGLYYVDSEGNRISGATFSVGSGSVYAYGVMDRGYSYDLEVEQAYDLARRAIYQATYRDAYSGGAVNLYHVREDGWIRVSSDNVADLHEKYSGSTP
- Sequence (P20618 29-241): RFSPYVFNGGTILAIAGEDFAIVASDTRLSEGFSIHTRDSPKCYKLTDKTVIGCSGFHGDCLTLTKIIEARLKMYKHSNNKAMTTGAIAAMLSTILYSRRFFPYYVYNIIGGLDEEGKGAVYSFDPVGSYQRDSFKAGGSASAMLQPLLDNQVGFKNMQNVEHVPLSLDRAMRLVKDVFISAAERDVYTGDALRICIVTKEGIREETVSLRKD
- Format: cell-based
- measurement context: assay of Example E, inhibition of MOLT4; read-out: MOLT4 (EC50)

Example results:
CC(C)C[C@H](NC(=O)[C@H](CCCNC(=N)N[N+](=O)[O-])NC(=O)/C=C/c1ccc2ccccc2c1)B(O)O [D.7.36] ... 2000 to 10000 nM
CC(C)C[C@H](NC(=O)[C@H](CCCNC(=N)N[N+](=O)[O-])NC(=O)CCCCCCCCCCCNC(=O)OC(C)(C)C)B1O[C@@H]2C[C@@H]3C[C@@H](C3(C)C)[C@]2(C)O1 [D.2.4] ... < 200 nM
CC(C)C[C@H](NC(=O)[C@H](CCCNC(=N)N[N+](=O)[O-])NC(=O)CCCCCCCCCCC#N)B(O)O [D.7.60] ... 2000 to 10000 nM
CC(C)C[C@H](NC(=O)[C@H](CCCNC(=N)N[N+](=O)[O-])NC(=O)c1ccc(Br)cc1)B1O[C@@H]2C[C@@H]3C[C@@H](C3(C)C)[C@]2(C)O1 [D.3.24] ... < 200 nM
CCC(C)C(=O)N[C@@H](CCCNC(=N)N[N+](=O)[O-])C(=O)N[C@@H](CC(C)C)B(O)O (mixture of isomers) [E.2.35] ... > 10000 nM

Continue with the next compound.
Can you share its EC50? I mean this compound: CC(C)C[C@H](NC(=O)[C@H](CCCNC(=N)N[N+](=O)[O-])NC(=O)CCCCCCC(=O)c1ccccc1)B(O)O [E.2.57]
2000 to 10000 nM

Hey, just so you know, these numbers are from patent US8546608B2.
